# MEASUREMENT_TARGET: E. coli Uridine-diphosphate-N-acetvimuramoyl: L-alanine lipase, MurC (Escherichia coli)
# ASSAY_INFO: Inhibitory activity against MurC (E. coli)
# Format: biochemical
# TEST_PARAMETERS: (E) E. coli enzyme
Property: MurC IC50; scope: individual molecules

# count of solved cases: 2
[
  {
    "QUERY_SMILES": "O=C1O/C(=C\\c2cc(C(F)(F)F)ccc2Cl)C(O)=C1c1ccc(-c2ccccc2)c(F)c1",
    "MEASURED": "5 (E) μg/mL"
  },
  {
    "QUERY_SMILES": "O=C1O/C(=C\\C2CCCCC2)C(O)=C1c1ccc2ccccc2c1",
    "MEASURED": "9 µg/mL"
  }
]

E. coli Uridine-diphosphate-N-acetvimuramoyl: L-alanine lipase, MurC (Escherichia coli) MurC IC50 of O=C1O/C(=C\c2cccc(C(F)(F)F)c2)C(O)=C1c1cccc2ccccc12 is 13 (E) μg/mL

----------
# MEASUREMENT_TARGET: UniProt:P08373
# ASSAY_INFO: biochemical
# TEST_PARAMETERS: (E) E. coli enzyme; read-out: MurB IC50 (converted)
RESULT_TYPE: IC50

[
  {
    "COMPOUND": "O=C1O/C(=C\\c2cccnc2)C(O)=C1c1ccc(-c2ccccc2)cc1 [Example 101]",
    "MEASUREMENT_TARGET": "UniProt:P08373",
    "IC50": "> 73.2 µM"
  }
]

Record Cc1ccc(/C=C2\OC(=O)C(c3cccc(C(F)(F)F)c3)=C2O)s1 [Example 12] , field IC50: > 71 µM

Value of IC50 reported for the compound O=C1O/C(=C\C2CCCCC2)C(O)=C1c1ccc(Cl)cc1 [Example 15] is > 82 µM

----------
# MEASUREMENT_TARGET: E. coli Uridine-diphosphate-N-acetvimuramoyl: L-alanine lipase, MurC (Escherichia coli, UniProt P17952)
# Sequence (P17952 whole entry): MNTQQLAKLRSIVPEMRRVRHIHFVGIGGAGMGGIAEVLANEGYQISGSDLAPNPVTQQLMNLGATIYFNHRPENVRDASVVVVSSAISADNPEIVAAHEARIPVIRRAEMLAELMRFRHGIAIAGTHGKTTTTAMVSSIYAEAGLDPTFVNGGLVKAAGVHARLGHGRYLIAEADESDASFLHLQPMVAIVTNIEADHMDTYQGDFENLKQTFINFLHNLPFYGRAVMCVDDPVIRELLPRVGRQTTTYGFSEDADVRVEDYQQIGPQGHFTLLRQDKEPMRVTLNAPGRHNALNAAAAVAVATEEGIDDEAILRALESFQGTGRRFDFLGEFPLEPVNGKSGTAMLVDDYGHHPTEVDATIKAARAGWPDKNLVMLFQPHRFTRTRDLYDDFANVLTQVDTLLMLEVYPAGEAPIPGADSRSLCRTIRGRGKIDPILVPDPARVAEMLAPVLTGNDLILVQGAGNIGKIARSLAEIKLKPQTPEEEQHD
# ASSAY_INFO: Inhibitory activity against MurC (E. coli)
# Format: biochemical
# TEST_PARAMETERS: (E) E. coli enzyme; read-out: MurC IC50 (converted)
RESULT_TYPE: IC50 (µM)
The response must be a number in µM with no trailing unit.

Example results:
[
  {
    "QUERY_SMILES": "O=C1O/C(=C\\c2ccc3ccccc3c2)C(O)=C1c1ccc(Cl)cc1",
    "UNITS_SYMBOL": "µM",
    "MEASURED": 14.3
  },
  {
    "QUERY_SMILES": "O=C1O/C(=C\\c2ccc(Cl)cc2)C(O)=C1c1ccc2ccccc2c1",
    "UNITS_SYMBOL": "µM",
    "MEASURED": 11.5
  },
  {
    "QUERY_SMILES": "Cc1ccc(C2=C(O)/C(=C/c3ccc(-c4ccc(C)cc4)cc3)OC2=O)cc1",
    "UNITS_SYMBOL": "µM",
    "MEASURED": 54.3
  }
]

Lab note: measured IC50 of O=C1O/C(=C\c2ccc(-c3ccccc3)cc2)C(O)=C1c1cccc(C(F)(F)F)c1 was 9.79

----------
# MEASUREMENT_TARGET: S. aureus Uridine-diphosphate-N-acetvimuramoyl: L-alanine lipase, MurC (Staphylococcus aureus, UniProt Q2FXJ0)
# Sequence (Q2FXJ0 whole entry): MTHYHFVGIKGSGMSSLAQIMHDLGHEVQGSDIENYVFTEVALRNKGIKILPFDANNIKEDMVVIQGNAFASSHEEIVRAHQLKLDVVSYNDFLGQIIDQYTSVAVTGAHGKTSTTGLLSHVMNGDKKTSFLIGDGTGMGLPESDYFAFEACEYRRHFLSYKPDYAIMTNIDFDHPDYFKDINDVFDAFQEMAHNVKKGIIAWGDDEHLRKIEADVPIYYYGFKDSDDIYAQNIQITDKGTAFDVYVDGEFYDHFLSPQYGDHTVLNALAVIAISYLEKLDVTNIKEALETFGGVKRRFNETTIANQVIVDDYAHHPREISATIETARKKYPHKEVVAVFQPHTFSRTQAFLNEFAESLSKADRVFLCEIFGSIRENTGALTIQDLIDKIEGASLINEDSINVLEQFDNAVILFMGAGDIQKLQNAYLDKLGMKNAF
# ASSAY_INFO: biochemical
# TEST_PARAMETERS: (S) S. aureus enzyme
The compounds listed here are annotated with their MurC IC50.

Some compounds with recorded MurC IC50:
[
  {
    "QUERY_SMILES": "Cc1cc(/C=C2\\OC(=O)C(c3cc(Cl)cc(Cl)c3)=C2O)ccc1-c1ccccc1OS(C)(=O)=O",
    "MurC IC50": "8 (S) μg/mL"
  },
  {
    "QUERY_SMILES": "O=C1O/C(=C\\c2ccc(N3CCOCC3)c(F)c2)C(O)=C1c1cc(Cl)cc(Cl)c1",
    "MurC IC50": "21 (S) μg/mL"
  },
  {
    "QUERY_SMILES": "COc1ccc(C=C2OC(=O)C(c3cccc(Cl)c3)=C2O)c2ccccc12",
    "MurC IC50": "8 (S) μg/mL"
  }
]

Shifting focus to the compound that follows.
The value of MurC IC50 measured for the compound Cc1cc(C=C2OC(=O)C(c3cc(Cl)cc(Cl)c3)=C2O)ccc1-c1ccccc1Cl turned out to be >25 (S) μg/mL

----------
# MEASUREMENT_TARGET: UniProt P08373
# ASSAY_INFO: biochemical
# TEST_PARAMETERS: (E) E. coli enzyme; read-out: MurB IC50 (converted)
RESULT_TYPE: IC50 (µM)
All answers are understood in µM, so give the number only.

Here's what some known entries look like.
[
  {
    "COMPOUND": "N#Cc1cccc(-c2ccc(/C=C3\\OC(=O)C(c4ccccc4C#N)=C3O)cc2)c1 [Example 59]",
    "IC50, µM": 15.4
  },
  {
    "COMPOUND": "CC(C)(C)c1ccc(-c2ccc(C3=C(O)/C(=C/c4cc(C(F)(F)F)ccc4Cl)OC3=O)cc2)cc1 [Example 128]",
    "IC50, µM": 10
  },
  {
    "COMPOUND": "O=C1O/C(=C\\c2ccc3ccccc3c2)C(O)=C1c1ccc(Cl)cc1 [Example 54]",
    "IC50, µM": 22.9
  }
]

Okay, now this compound:
According to the records, this compound O=C1O/C(=C\c2cc(C(F)(F)F)ccc2F)C(O)=C1c1cccc(-c2ccccc2)c1 [Example 121] displays IC50 of 16.4

----------
# System: enterococci
# ASSAY_INFO: Minimum inhibitory concentration, microdilution broth method, enterococci
# Format: cell-based
# TEST_PARAMETERS: E. faecalis GC 4555; Mueller-Hinton broth, 18-22 hours at 35° C.
In this section we review reported MIC E. faecalis GC 4555 values for a set of compounds.
Please give a number only; it is taken to be in µg/mL.

Consider the following illustrative entries.
[
  {
    "COMPOUND": "Cc1cc(/C=C2\\OC(=O)C(c3cc(Cl)cc(Cl)c3)=C2O)ccc1-c1ccccc1OS(C)(=O)=O [Example 39]",
    "MEASURED": 8
  },
  {
    "COMPOUND": "CN(C)c1ccc(C=C2OC(=O)C(c3cc(Cl)cc(Cl)c3)=C2O)c2ccccc12 [Example 80]",
    "MEASURED": 8
  },
  {
    "COMPOUND": "CCOC(=O)c1cccc(C2=C(O)C(=Cc3cccc4ccccc34)OC2=O)c1 [Example 75]",
    "MEASURED": 64
  }
]

# ---- query compound ----
The compound identified as Cc1ccc(C=C2OC(=O)C(c3ccc(Cl)cc3)=C2O)s1 [Example 14] registered its MIC E. faecalis GC 4555 at 4

----------
# MEASUREMENT_TARGET: E. coli Enopyruvyl-UPD-N-acetylglucosamine reductase, Mur B (Escherichia coli)
# Sequence (P08373 whole entry): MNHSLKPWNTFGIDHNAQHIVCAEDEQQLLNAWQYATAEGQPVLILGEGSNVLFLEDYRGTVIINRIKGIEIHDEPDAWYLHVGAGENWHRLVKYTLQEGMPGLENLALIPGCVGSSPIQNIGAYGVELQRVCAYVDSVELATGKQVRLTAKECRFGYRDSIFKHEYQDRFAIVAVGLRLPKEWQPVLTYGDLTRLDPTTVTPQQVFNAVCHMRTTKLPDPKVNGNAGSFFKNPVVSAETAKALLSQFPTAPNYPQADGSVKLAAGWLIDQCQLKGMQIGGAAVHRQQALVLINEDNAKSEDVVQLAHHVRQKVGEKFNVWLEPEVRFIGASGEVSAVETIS
# ASSAY_INFO: biochemical
# TEST_PARAMETERS: (E) E. coli enzyme
Quick reference for MurB IC50 among some molecules

Use these answered entries as a reference point.
[
  {
    "QUERY_SMILES": "CCOC(=O)c1cccc(C2=C(O)C(=Cc3cccc4ccccc34)OC2=O)c1",
    "MEASUREMENT_TARGET": "E. coli Enopyruvyl-UPD-N-acetylglucosamine reductase, Mur B (Escherichia coli)",
    "RESULT_TYPE": "MurB IC50",
    "MEASURED": "> 25 µg/mL"
  },
  {
    "QUERY_SMILES": "O=C1O/C(=C\\c2cccc3ccccc23)C(O)=C1c1cccc(C=NO)c1",
    "MEASUREMENT_TARGET": "E. coli Enopyruvyl-UPD-N-acetylglucosamine reductase, Mur B (Escherichia coli)",
    "RESULT_TYPE": "MurB IC50",
    "MEASURED": "21 µg/mL"
  }
]

Please turn your attention to the following entry.
Lab note: measured MurB IC50 of O=C1OC(=CC2CCCCC2)C(O)=C1c1cccc(C(F)(F)F)c1 was >25 (E) μg/mL

----------
# MEASUREMENT_TARGET: S. aureus Uridine-diphosphate-N-acetylmuramoyl-L-alanine: D-glutamate liease, MurD (Staphylococcus aureus, UniProt Q2FZ92)
# Sequence (Q2FZ92 1-449): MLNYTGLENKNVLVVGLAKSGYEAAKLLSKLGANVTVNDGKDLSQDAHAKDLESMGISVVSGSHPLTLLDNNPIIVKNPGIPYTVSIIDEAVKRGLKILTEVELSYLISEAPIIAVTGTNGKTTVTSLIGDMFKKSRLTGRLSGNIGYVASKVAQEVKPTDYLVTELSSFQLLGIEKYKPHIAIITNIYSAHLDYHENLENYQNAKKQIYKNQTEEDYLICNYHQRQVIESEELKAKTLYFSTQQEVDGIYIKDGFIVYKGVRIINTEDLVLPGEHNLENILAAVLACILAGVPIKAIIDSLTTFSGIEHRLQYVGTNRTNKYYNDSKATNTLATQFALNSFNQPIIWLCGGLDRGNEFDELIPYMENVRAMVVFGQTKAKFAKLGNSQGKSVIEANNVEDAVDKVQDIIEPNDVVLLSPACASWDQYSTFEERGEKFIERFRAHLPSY
pIC50: −log10 of the molar value.
List of pIC50 values.

[
  {
    "MOLECULE": "COc1cccc(C2=C(O)/C(=C/c3cccc4ccccc34)OC2=O)c1 [Example 72]",
    "pIC50": "< 4.14"
  },
  {
    "MOLECULE": "O=C1O/C(=C\\c2cccc(C(F)(F)F)c2)C(O)=C1c1ccc2ccccc2c1 [Example 42]",
    "pIC50": "< 4.18"
  }
]

The molecule listed as O=C1O/C(=C\C2CCCCC2)C(O)=C1c1ccc(Cl)cc1 [Example 15] has a reported pIC50 of < 4.09

The molecule listed as O=C1O/C(=C\c2ccc(Cl)cc2)C(O)=C1c1ccc2ccccc2c1 [Example 43] has a reported pIC50 of < 4.14

The reported pIC50 of the molecule CN(C)c1ccc(/C=C2\OC(=O)C(c3ccc(Cl)cc3)=C2O)c2ccccc12 [Example 78] was < 4.20
